# credit: ChEMBL document CHEMBL3861993

Test: AUC in rat at 5 mg/kg, po
Type: ADME, organism-based
Settings: in vivo

Compound string	AUC, µM·h
COC(=O)N[C@H](C(=O)N1CCC[C@H]1c1ncc(-c2ccc3c(c2)Oc2ccc(-c4cnc([C@@H]5CCCN5C(=O)[C@@H](NC(=O)OC)C(C)C)[nH]4)c4occ-3c24)[nH]1)C(C)C	4.28

###

Test: Clearance in rat at 2 mg/kg, iv or 10 mg/kg, po
Type: ADME, organism-based
Conditions: in vivo
Measured endpoint: clearance (mL/min/kg)

Compound string	Data value
COC(=O)N[C@H](C(=O)N1CCC[C@H]1c1ncc(-c2ccc3c(c2)OCC2=C3COc3cc(-c4cnc([C@@H]5CCCN5C(=O)[C@@H](NC(=O)OC)C(C)C)[nH]4)ccc32)[nH]1)C(C)C	5.3

###

Below, each of the compounds is paired with its reported EC90 value.
Test system: Nonstructural protein 5A (Hepatitis C virus), Q5L478 [Y93H]
Sequence (whole entry): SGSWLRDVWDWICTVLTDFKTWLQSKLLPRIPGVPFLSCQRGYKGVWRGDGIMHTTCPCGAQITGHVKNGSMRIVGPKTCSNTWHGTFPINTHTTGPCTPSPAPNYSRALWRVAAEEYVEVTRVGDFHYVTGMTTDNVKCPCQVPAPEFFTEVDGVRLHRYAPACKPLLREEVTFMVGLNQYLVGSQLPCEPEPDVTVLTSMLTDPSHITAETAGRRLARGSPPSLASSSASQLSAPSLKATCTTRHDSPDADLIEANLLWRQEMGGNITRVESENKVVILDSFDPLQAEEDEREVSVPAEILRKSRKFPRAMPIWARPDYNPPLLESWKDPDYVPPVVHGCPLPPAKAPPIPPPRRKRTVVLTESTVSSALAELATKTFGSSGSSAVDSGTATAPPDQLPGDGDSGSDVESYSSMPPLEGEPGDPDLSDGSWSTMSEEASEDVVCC
Assay: Inhibition of HCV genotype 1a NS5A Y93H mutant after 3 day incubation by RT-PCR-cell-based HCV replicon assay
Conditions: Hepatitis C virus subtype 1a
Measured endpoint: EC90 (nM)

Compound	Measurement qualifier	Data value
COC(=O)N[C@H](C(=O)N1CCC[C@H]1c1ncc(-c2ccc3c(c2)OC(C2CC2)C2=C3COc3cc(-c4cnc([C@@H]5CCCN5C(=O)[C@@H](NC(=O)OC)C(C)C)[nH]4)ccc32)[nH]1)C(C)C (stereo partly drawn)	=	41
COC(=O)N[C@H](C(=O)N1CCC[C@H]1c1ncc(-c2ccc3c(c2)OC(c2ccccc2)C2=C3COc3cc(-c4cnc([C@@H]5CCCN5C(=O)[C@@H](NC(=O)OC)C(C)C)[nH]4)ccc32)[nH]1)C(C)C (stereo partly drawn)	>	100
COC(=O)N[C@H](C(=O)N1CCC[C@H]1c1ncc(-c2ccc3c(c2)Oc2ccc(-c4cnc([C@@H]5CCCN5C(=O)[C@@H](NC(=O)OC)C(C)C)[nH]4)c4c2N3CC4)[nH]1)C(C)C	=	685

###

Test: Clearance in rat at 2.5 mg/kg, iv or 5 mg/kg, po
Format: ADME, organism-based
Settings: in vivo

Compound string	clearance [mL/min/kg]
COC(=O)N[C@H](C(=O)N1CCC[C@H]1c1ncc(-c2ccc3c(c2)Oc2ccc(-c4cnc([C@@H]5CCCN5C(=O)[C@@H](NC(=O)OC)C(C)C)[nH]4)c4occ-3c24)[nH]1)C(C)C	8.5

###

EC90 listing for selected compounds.
Tested on: Nonstructural protein 5A (Hepatitis C virus), Q5L478 [UNDEFINED MUTATION]
Assay: Inhibition of HCV genotype 1a NS5A L31V mutant after 3 day incubation by RT-PCR-cell-based HCV replicon assay
Conditions: Hepatitis C virus subtype 1a

Compound	EC90, nM
COC(=O)N[C@H](C(=O)N1CCC[C@H]1c1ncc(-c2ccc3c(c2)OC(C)C2=C3COc3cc(-c4cnc([C@@H]5CCCN5C(=O)[C@@H](NC(=O)OC)C(C)C)[nH]4)ccc32)[nH]1)C(C)C (stereo not given in full)	1.52
COC(=O)N[C@H](C(=O)N1CCC[C@H]1c1ncc(-c2ccc3c(c2)OC(C2CC2)C2=C3COc3cc(-c4cnc([C@@H]5CCCN5C(=O)[C@@H](NC(=O)OC)C(C)C)[nH]4)ccc32)[nH]1)C(C)C (stereo not given in full)	1.7
COC(=O)N[C@H](C(=O)N1CCC[C@H]1c1ncc(-c2ccc3c(c2)Oc2ccc(-c4cnc([C@@H]5CCCN5C(=O)[C@@H](NC(=O)OC)C(C)C)[nH]4)c4c2N3CCO4)[nH]1)C(C)C	100
COC(=O)N[C@H](C(=O)N1CCC[C@H]1c1ncc(-c2ccc3c(c2)Oc2ccc(-c4cnc([C@@H]5CC(F)(F)CN5C(=O)[C@@H](NC(=O)OC)C(C)C)[nH]4)c4ccn-3c24)[nH]1)C(C)C	17.2
COC(=O)N[C@H](C(=O)N1CCC[C@H]1c1ncc(-c2ccc3c(c2)Oc2ccc(-c4cnc([C@@H]5CCCN5C(=O)[C@@H](NC(=O)OC)C(C)C)[nH]4)c4occ-3c24)[nH]1)C(C)C	100
COC(=O)N[C@H](C(=O)N1CCC[C@H]1c1ncc(-c2ccc3c(c2)OC(c2ccccc2)C2=C3COc3cc(-c4cnc([C@@H]5CCCN5C(=O)[C@@H](NC(=O)OC)C(C)C)[nH]4)ccc32)[nH]1)C(C)C (stereo not given in full)	0.28
COC(=O)N[C@H](C(=O)N1CCC[C@H]1c1ncc(-c2ccc3c(c2)OC(c2cccc(OC)c2)C2=C3COc3cc(-c4cnc([C@@H]5CCCN5C(=O)[C@@H](NC(=O)OC)C(C)C)[nH]4)ccc32)[nH]1)C(C)C (stereo not given in full)	0.3
COC(=O)N[C@H](C(=O)N1CCC[C@H]1c1ncc(-c2ccc3c(c2)Oc2ccc(-c4cnc([C@@H]5CCCN5C(=O)[C@@H](NC(=O)OC)C(C)C)[nH]4)c4c2N3CCC4)[nH]1)C(C)C	100
COC(=O)N[C@H](C(=O)N1CCC[C@H]1c1ncc(-c2ccc3c(c2)Oc2ccc(-c4cnc([C@@H]5CCCN5C(=O)[C@@H](NC(=O)OC)C(C)C)[nH]4)c4ccn-3c24)[nH]1)C(C)C	90.2
COC(=O)N[C@H](C(=O)N1CCC[C@H]1c1ncc(-c2ccc3c(c2)Oc2ccc(-c4cnc([C@@H]5CCCN5C(=O)[C@@H](NC(=O)OC)C(C)C)[nH]4)c4cnn-3c24)[nH]1)C(C)C	62.3

###

Assay: Cmax in rat at 2.5 mg/kg, iv or 5 mg/kg, po
Type: ADME, organism-based
Details: in vivo

Compound string	Cmax / nM
COC(=O)N[C@H](C(=O)N1CCC[C@H]1c1ncc(-c2ccc3c(c2)Oc2ccc(-c4cnc([C@@H]5CCCN5C(=O)[C@@H](NC(=O)OC)C(C)C)[nH]4)c4occ-3c24)[nH]1)C(C)C	830
